Assay: Human HepG2 cell viability assay in 384 well format
Assay type: toxicity, cell-based
Parameters: dose 125 nL, time 70.5 hour; concentration not given beside the values
Conditions: HepG2 cells, read-out: Inhibition
Property Measured: cytotoxicity at 70.5 h (%)
Just the number in %, nothing appended.

# annotated cases, reported cytotoxicity at 70.5 h shown
> print(dat)
                                   molecule  unit.annotation  quantitative.readout
1  O=C(CC1CC1)N1C[C@@H]2CN(c3ccccc3)C(=O)[C@@H]2C1                %                 -8.68
2          c1ccc(-c2nc(CCNCc3ccncc3)co2)cc1                %                 -5.13

Now consider a different molecule.
OCc1ccccc1CNCC1CNc2ccnn2C1 (configuration not stated) has a reported cytotoxicity at 70.5 h of -1.22

----------
Assay: Human HepG2 cell viability assay in 384 well format
Type: toxicity, cell-based
Set-up: dose 125 nL, time 70.5 hour; concentration not given beside the values
Details: HepG2 cells, read-out: Inhibition
Property Measured: cytotoxicity at 70.5 h (%)
Just the number in %, nothing appended.

> print(dat)
                                   compound  quantitative.readout
1  CC(CNC(=O)c1cc(C2CC2)on1)N1CCc2ccccc21 (centres undefined)                  2.16
2  CCn1c(CN(C)C)nnc1C1CCN(Cc2cccc(OC)c2)CC1                   4.9
3  Cc1c(C2SCC(=O)Nc3c2c(O)nn3C(C)C)cnn1C (centres undefined)                 -26.6
4       CC(=O)NS(=O)(=O)c1ccc(F)cc1C(F)(F)F                  33.1
5  COc1cccc(CC(C)NC(=O)NCCc2cccnc2)c1 (centres undefined)                 -8.55

COc1cccc(CNC(=O)N2CCCC(Cn3cc(CN)nn3)C2)c1 (centres undefined) has a reported cytotoxicity at 70.5 h of -5.66

Cc1ccc(N2C[C@H]3CCC[C@@]3(COc3cccnc3)C2)nn1 has a reported cytotoxicity at 70.5 h of -8.26

CCn1cc(CN2CCc3nc(N4CCOCC4)nc(O)c3CC2)cn1 has a reported cytotoxicity at 70.5 h of 7.44

OCCNc1nccc(-c2c[nH]nc2-c2ccco2)n1 has a reported cytotoxicity at 70.5 h of 4.01

----------
Experiment: Human HepG2 cell viability assay in 384 well format
Format: toxicity, cell-based
Design: dose 125 nL, time 70.5 hour; concentration not given beside the values
Conditions: HepG2 cells, read-out: Inhibition
Property Measured: cytotoxicity at 70.5 h (%)
Just the number in %, nothing appended.

> print(dat)
                                   molecule  unit.annotation  quantitative.readout
1                 COc1ccc(OCCNCCn2cccn2)cc1                %                  3.51
2     CN1CCN(C(=O)COCc2nc(-c3ccncc3)no2)CC1                %                  17.1
3  CCN1CCN(C(=O)c2cn(Cc3ccccc3)c3ncccc23)CC1                %                -0.985
4  CC(C)CCN1CCc2c(C(=O)N(C)Cc3ccccn3)nn(C)c2C1                %                 -2.57
5      c1cnc(NCc2cncc3c2CCN(Cc2ccsc2)C3)nc1                %                 -7.81

CN(C)C(=O)CN1C[C@@H]2CC[C@H](C1)N(C(=O)Cc1ccccc1Cl)C2 has a reported cytotoxicity at 70.5 h of 8.11

COCCOc1ncccc1C(=O)N1CCCn2ncnc21 has a reported cytotoxicity at 70.5 h of -5.4

COCc1cnc2n1CCN(C(=O)C1=CCCC1)C2C (stereo unspecified) has a reported cytotoxicity at 70.5 h of -14.6

----------
molecules and their reported cytotoxicity at 70.5 h
Experiment: Human HepG2 cell viability assay in 384 well format
Assay type: toxicity, cell-based
Set-up: dose 125 nL, time 70.5 hour; concentration not given beside the values
Conditions: HepG2 cells, read-out: Inhibition
Just the number in %, nothing appended.

Cc1noc(C)c1CCC(=O)NC(C)c1nnc2n1CCC2 (stereo not drawn) has a reported cytotoxicity at 70.5 h of 8.52

O[C@@H]1C[C@@H](c2nc(Cc3ccccc3)no2)N(Cc2ncc[nH]2)C1 has a reported cytotoxicity at 70.5 h of 9.72

Cc1ccc(NC(=O)N2C[C@H]3CC[C@@H]2CN(Cc2cscn2)C3)cc1 has a reported cytotoxicity at 70.5 h of -6.47

O=C(NCCc1nnc2n1CCCCC2)N1CCC2(CCOC2)C1 (stereo not drawn) has a reported cytotoxicity at 70.5 h of -5.08

Cc1cc(C(=O)N[C@H]2CN(CCO)C[C@@H]2C2CC2)sc1C has a reported cytotoxicity at 70.5 h of -3.28

O=C(Nc1ccc(F)cc1)C1CCN(Cc2noc(C3CC3)n2)CC1 has a reported cytotoxicity at 70.5 h of -7.96

CC(NC(=O)NCCCn1cccn1)c1ccc2c(c1)NC(=O)CO2 (stereo not drawn) has a reported cytotoxicity at 70.5 h of 46.4

Cc1nccc(C(=O)N2CCOC(c3nc(C(C)C)n[nH]3)C2)n1 (stereo not drawn) has a reported cytotoxicity at 70.5 h of -5.71

NC(=O)c1ccc(-n2ccnc2C2CC2)cc1N1CCCC1 has a reported cytotoxicity at 70.5 h of -3.29

Cc1noc(C(C)N2CCN(CCN3CCCC3=O)CC2)n1 (stereo not drawn) has a reported cytotoxicity at 70.5 h of -4.25

CCOC(=O)N1CCC(N2Cc3ncccc3C2=O)CC1 has a reported cytotoxicity at 70.5 h of 3.24

COC(C)(C)CNC(=O)N1CCC(n2ccc(C(F)(F)F)n2)CC1 has a reported cytotoxicity at 70.5 h of -76.1

NC(=O)N1CCC2(CC1)CC(=O)N(CC1CCCO1)c1ccccc12 (stereo not drawn) has a reported cytotoxicity at 70.5 h of 5.57

CC1CCN(CCNC(=O)c2ccn(-c3ccc(F)cc3)n2)CC1 has a reported cytotoxicity at 70.5 h of -5.04

----------
Experiment: Human HepG2 cell viability assay in 384 well format
Type: toxicity, cell-based
Set-up: dose 125 nL, time 70.5 hour; concentration not given beside the values
Conditions: HepG2 cells, read-out: Inhibition
compounds and their reported cytotoxicity at 70.5 h
Just the number in %, nothing appended.

# annotated cases, reported cytotoxicity at 70.5 h shown
> print(dat)
                                   compound  quantitative.readout
1  CCc1cc(N[C@@H](CO)C(N)=O)n2nc(C)c(C)c2n1                 -2.72
2  Cc1nc(CNCC2Cn3nncc3CO2)cs1 (centres undefined)                 -2.11
3   CCc1nc(C(=O)N2CCN(CC)CC2)nn1-c1ccccc1Cl                  11.3

Now consider a different compound.
CN(CCOc1cccc(S(C)(=O)=O)c1)c1ccccc1 has a reported cytotoxicity at 70.5 h of -2.26

----------
Experiment: Human HepG2 cell viability assay in 384 well format
Assay type: toxicity, cell-based
Parameters: dose 125 nL, time 70.5 hour; concentration not given beside the values
Details: HepG2 cells, read-out: Inhibition
compounds and their reported cytotoxicity at 70.5 h
Just the number in %, nothing appended.

# annotated cases, reported cytotoxicity at 70.5 h shown
> print(dat)
                                   compound       property.measured  quantitative.readout
1  O=C(CCCn1ccnc1)NC1CCCN(c2ccccc2Cl)C1 (stereo unspecified)  cytotoxicity at 70.5 h                   -18
2       Cc1ccsc1CNc1ccccc1C(=O)N1CCNC(=O)C1  cytotoxicity at 70.5 h                  16.9
3  COc1ccccc1C(C#N)NC(=O)c1cccc2c1oc(=O)n2C (stereo unspecified)  cytotoxicity at 70.5 h                  -6.2
4  CCN1CCc2[nH]cnc2C12CCN(c1ccc(Cl)c(C(=O)O)n1)CC2  cytotoxicity at 70.5 h                  -2.9
5            Cc1ccc(CNC(=O)c2cc(C)n(C)n2)o1  cytotoxicity at 70.5 h                 -8.67

Now consider a different compound.
COCCN1CCN(Cc2cccc(OCC(N)=O)c2)CC1C (stereo unspecified) has a reported cytotoxicity at 70.5 h of 10.7

----------
Experiment: Human HepG2 cell viability assay in 384 well format
Format: toxicity, cell-based
Set-up: dose 125 nL, time 70.5 hour; concentration not given beside the values
Settings: HepG2 cells, read-out: Inhibition
Property Measured: cytotoxicity at 70.5 h (%)
Just the number in %, nothing appended.

# annotated cases, reported cytotoxicity at 70.5 h shown
> print(dat)
                                   compound  quantitative.readout
1  Cc1cnccc1CN1C[C@@H](O)[C@H](Oc2ccccc2)C1                 -5.34
2  CC(C)c1cc(NCC(O)CO)n2nccc2n1 (stereo not drawn)                -0.638
3  Cc1ccc(S(=O)(=O)NC(=O)CCc2ccco2)cc1N(C)C                  20.1
4  CSCC(=O)N[C@H]1CN(CC2CCOCC2)C[C@@H]1c1ccccc1                 -4.95
5  NCCn1nc(C2CCN(C(=O)Cc3ccccc3)C2)c2nccnc21 (stereo not drawn)                 -5.36
6  Cc1noc(C)c1CN1CC[C@H]2[C@@H]1CCC(=O)N2CC1CCOCC1                 -3.53
7  O=C(CN1CCCC1c1nc2cc(F)ccc2[nH]1)NCc1ccccn1 (stereo not drawn)                 -3.28

Cc1cccc(CN2C[C@@H]3[C@@H](C(=O)NCC(C)C)CCS(=O)(=O)[C@@H]3C2)c1 has a reported cytotoxicity at 70.5 h of -6.13
